- Tested on: HS 578T breast
- Assay Procedure: NCI-60 one-dose screen, 48 h (100 = growth as untreated, 0 = no growth, -100 = all killed)
- Particulars: 10 µM unless noted
This is part of a sample that, as a whole, favours compounds with a hit. Of some 83,000 tested, about 20% had one in any assay.
Lab note - cut at 40% for growth: 1 if strictly below, -1 if not.

Would you kindly verify if growth of COc1cc(/C=C2\C(=O)ON=C2C)cc(OC)c1OC is strictly less than 40%?
-1

Would you kindly verify if growth of Cc1cc(O)c(C2=NN(c3ccc(S(N)(=O)=O)cc3)C(c3ccccc3Cl)C2)cc1Cl (centres undefined) is strictly less than 40%?
1

Would you kindly verify if growth of CN(C)CC1C(=O)O[C@H]2[C@H]1CC/C(COC(=O)c1cc3ccccc3[nH]1)=C\CC[C@@]1(C)O[C@@H]21 (some centres undefined) is strictly less than 40%?
1

Would you kindly verify if growth of O=C(Nc1ccc(-n2cc(-c3ccncc3)c(-c3ccc(Cl)c(O)c3)n2)cc1)N1CCOCC1 is strictly less than 40%?
-1

Would you kindly verify if growth of Oc1c(CN2CCCC2)cc(COCc2ccc(Br)cc2)c2cccnc12 is strictly less than 40%?
-1

Would you kindly verify if growth of COc1ccc(-c2cc(-c3cc(OC)c(OC)c(OC)c3)c(C#N)c(N3CCOCC3)n2)cc1O is strictly less than 40%?
-1

Would you kindly verify if growth of Cc1nc2ccccc2c(/C=C/c2ccc(Cl)cc2)c1C(=O)/C=C/c1ccc(F)cc1 is strictly less than 40%?
1

Would you kindly verify if growth of Cc1cc(C(=O)c2ccccc2)c(C)c2c1[nH]c1ccc(Cl)cc12 is strictly less than 40%?
1

Would you kindly verify if growth of O=C(Nc1cccc(Cl)c1)c1cc(N=Nc2ccc([N+](=O)[O-])cc2Cl)ccc1O is strictly less than 40%?
-1

====

- Tested on: CAKI-1 renal
- Assay Procedure: NCI-60 one-dose screen, 48 h (100 = growth as untreated, 0 = no growth, -100 = all killed)
- Particulars: 10 µM unless noted
About 83,000 compounds went through this panel and 20% of them were active in at least one assay; those are over-represented in the sample as a whole.
Would you mind labelling by growth? At or over 70% is Yes, under is No.

Please check the record Cc1ccc(S(=O)(=O)NCC[C@@H]2C[C@H]2c2cc3ccccc3s2)cc1 and state if its growth is at or above 70%.
Yes

Please check the record CCN1C(=O)N(CC)C2Nn3c(s/c(=C\c4cccc([N+](=O)[O-])c4)c3=O)=NC21 (stereo not given) and state if its growth is at or above 70%.
No

Please check the record COc1cccc(-c2nc3sccn3c2-c2ccnc(NCCNS(=O)(=O)c3cccc(Cl)c3)c2)c1 and state if its growth is at or above 70%.
No

Please check the record COc1cccc(-c2nn(-c3ccccc3)cc2-c2ccnc(NCCCNC(=O)c3ccc(F)cc3)c2)c1 and state if its growth is at or above 70%.
No

====

- Test system: SN12C renal
- Assay Procedure: NCI-60 one-dose screen, 48 h (100 = growth as untreated, 0 = no growth, -100 = all killed)
- Particulars: 10 µM unless noted
About 83,000 compounds went through this panel and 20% of them were active in at least one assay; those are over-represented in the sample as a whole.
What growth was measured for each of the following?
Field: numeric (%). Do not append units.

Form field: reported growth of COC(=O)c1c2c(c[n+]([O-])c1C)C(=O)C=CC2=O
59.7

Form field: reported growth of COc1cc2nc(Cl)nc(Nc3ccc(S(=O)(=O)Nc4nccs4)cc3)c2cc1OC
95.7

Form field: reported growth of CC1(c2ccccc2)NC(=O)N(NC(=O)CSc2nc(-c3cccs3)nc3ccccc23)C1=O (centres undefined)
100

Form field: reported growth of COC(=O)[C@]12CC[C@@H](C)[C@H](C)[C@@H]1C1=CC[C@@H]3[C@@]4(C)C(C=O)=C[C@@](C)(COC(=O)c5ccco5)C4=CC[C@@]3(C)[C@]1(C)CC2
17.1

Form field: reported growth of O=C(NCCc1ccc(O)c(O)c1)C12CC3CC(CC(C3)C1)C2
96.7

Form field: reported growth of Cc1ccc2nc3ccccc3c(NCc3ccccc3)c2c1
25.5

Form field: reported growth of N#C/C(=C\c1ccc(Br)cc1)n1nnc2cc(F)c(F)cc21
17

Form field: reported growth of Nc1n[nH]c2cc(F)c([C@@H]3Nc4c(F)cc5[nH]ncc5c4[C@H]4C5CCC(C5)[C@@H]34)cc12 (some centres undefined)
17.3

Form field: reported growth of COc1cc(/C=N/NC(=O)Cn2c(C(C)C)nc3ccccc32)ccc1O
94.7

Form field: reported growth of Cc1c2c(c(C)c3c1oc1cc(O)ccc13)C(=O)N(CCN1CCCCC1)C2=O
85.9

Form field: reported growth of Cc1c(O)cc(-c2cnc(N/N=C\c3ccc(Cl)cc3)s2)c(O)c1C
87.5

Form field: reported growth of O=C(CSc1nnc(-c2ccc(NC(=O)c3cccnc3)cc2)o1)N[C@@H](Cc1ccc(O)cc1)C(=O)O
94.4

Form field: reported growth of CC(C)(C)C(CCc1ccc(Cl)cc1)N1CCN(C2CCCCC2)CC1 (centres undefined)
45.7

Form field: reported growth of COC(=O)[C@]12CC[C@@H](C)[C@H](C)[C@@H]1C1=CC[C@@H]3[C@@]4(C)C(C=O)=C[C@@](C)(COC(=O)/C=C/c5ccccc5)[C@@H]4[C@H](O)C[C@@]3(C)[C@]1(C)CC2
3.47

Form field: reported growth of O=Cc1ccc(O)c2ncccc12
35.2

Form field: reported growth of CN(C)CCC=C1c2ccccc2C(C)(C)c2ccccc21
71.2

Form field: reported growth of CS(=O)c1cccc(-c2ccc3nc(N)n(-c4ccc(C(F)(F)F)cc4)c(=O)c3c2)c1 (centres undefined)
96.3

Form field: reported growth of CC1SC(c2ccc(OCc3ccccc3)cc2)N(NC(=O)C(O)(c2ccccc2)c2ccccc2)C1=O (centres undefined)
85.6

Form field: reported growth of COc1ccc2c(c1)CCCN2c1c2ccccc2nc2ccccc12
39.5
